// compounds with reported Kd on Epidermal growth factor receptor (Homo sapiens), multi-publication
experimentalEndpoint: Kd

compound=CCOc1cc2ncc(C#N)c(Nc3ccc(OCc4cccc(F)c4)c(Cl)c3)c2cc1NC(=O)C1CSSC1 targetundertest="Epidermal growth factor receptor (Homo sapiens)" experimentalendpoint=Kd datavalue="1 to 99 nM"
compound=COc1cccc(-c2cc3c(Nc4ccc(F)cc4)ncnc3[nH]2)c1 targetundertest="Epidermal growth factor receptor (Homo sapiens)" experimentalendpoint=Kd datavalue="< 100 nM"
compound=CC[C@@H]1C(=O)N(C)c2cnc(Nc3ccc(C(=O)NCCOCCOCCN(C)C/C=C/C(=O)Nc4cc(Nc5nccc(-c6cn(C)c7ccccc67)n5)c(OC)cc4N(C)CCN(C)C)cc3OC)nc2N1C1CCCC1 targetundertest="Epidermal growth factor receptor (Homo sapiens)" experimentalendpoint=Kd datavalue="> 2500 nM"
compound=Fc1ccc(Nc2ncnc3c2[nH]c2ccccc23)cc1Cl targetundertest="Epidermal growth factor receptor (Homo sapiens)" experimentalendpoint=Kd datavalue="100 to 1000 nM"
compound="C=C(COc1cc(Cl)cc(NC(=O)NCc2ccc3c(c2)CN(C2CCC(=O)NC2=O)C3=O)c1)C(=O)Nc1cccc(-c2cccc3cnc(Nc4ccc(N5CCN(CCO)CC5)c(F)c4F)nc23)c1 (stereo not drawn)" targetundertest="Epidermal growth factor receptor (Homo sapiens)" experimentalendpoint=Kd datavalue="500 to 2500 nM"
compound=C=CC(=O)Nc1cc(Nc2nccc(-c3cn(C)c4ccccc34)n2)c(OC)cc1N(C)CCN(C)CCCN1CCN(CCCOc2ccc(CNc3cc(N4CCCC[C@H]4CCO)nc4c(CC)cnn34)cn2)CC1 targetundertest="Epidermal growth factor receptor (Homo sapiens)" experimentalendpoint=Kd datavalue="500 to 2500 nM"
compound=COc1ccc(-c2cc3c(OCc4cccc(C)c4)ncnc3[nH]2)cc1 targetundertest="Epidermal growth factor receptor (Homo sapiens)" experimentalendpoint=Kd datavalue="> 10000 nM"
compound=COc1cccc(-c2cc3c(Sc4cccc(C)c4)ncnc3[nH]2)c1 targetundertest="Epidermal growth factor receptor (Homo sapiens)" experimentalendpoint=Kd datavalue="100 to 1000 nM"
compound=COc1cccc(-c2cc3c(Nc4ccc(C)cc4)ncnc3[nH]2)c1 targetundertest="Epidermal growth factor receptor (Homo sapiens)" experimentalendpoint=Kd datavalue="< 100 nM"
compound=COc1cccc(-c2cc3c(Sc4cccc(Cl)c4)ncnc3[nH]2)c1 targetundertest="Epidermal growth factor receptor (Homo sapiens)" experimentalendpoint=Kd datavalue="< 100 nM"
compound=COc1ccc(-c2cc3c(Nc4cc(Cl)cc(Cl)c4)ncnc3[nH]2)cc1 targetundertest="Epidermal growth factor receptor (Homo sapiens)" experimentalendpoint=Kd datavalue="100 to 1000 nM"
compound=Cc1cc(C)cc(Nc2ncnc3[nH]c(-c4ccc(Br)cc4)cc23)c1 targetundertest="Epidermal growth factor receptor (Homo sapiens)" experimentalendpoint=Kd datavalue="100 to 1000 nM"
compound=COc1cccc(-c2cc3c(Sc4ccccc4Cl)ncnc3[nH]2)c1 targetundertest="Epidermal growth factor receptor (Homo sapiens)" experimentalendpoint=Kd datavalue="< 100 nM"
compound="C=CC(=O)Nc1cc(Nc2nccc(-c3cn(C)c4ccccc34)n2)c(OC)cc1N(C)CCN(C)CCOCCOCCOCCOCCON(C)C(=O)N1N=C(c2cc(F)ccc2F)SC1(CCCN)c1ccccc1 (stereo not drawn)" targetundertest="Epidermal growth factor receptor (Homo sapiens)" experimentalendpoint=Kd datavalue="< 50 nM"
compound="CC1(C)OC[C@H](COc2cc3ncc(C#N)c(Nc4ccc(OCc5cccc(F)c5)c(Cl)c4)c3cc2NC(=O)CC2CCSS2)O1 (stereo partly drawn)" targetundertest="Epidermal growth factor receptor (Homo sapiens)" experimentalendpoint=Kd datavalue="1 to 99 nM"
